# system: RORγ ligand binding domain (Homo sapiens)
# Sequence (P51449 with tags, fused parts or gaps): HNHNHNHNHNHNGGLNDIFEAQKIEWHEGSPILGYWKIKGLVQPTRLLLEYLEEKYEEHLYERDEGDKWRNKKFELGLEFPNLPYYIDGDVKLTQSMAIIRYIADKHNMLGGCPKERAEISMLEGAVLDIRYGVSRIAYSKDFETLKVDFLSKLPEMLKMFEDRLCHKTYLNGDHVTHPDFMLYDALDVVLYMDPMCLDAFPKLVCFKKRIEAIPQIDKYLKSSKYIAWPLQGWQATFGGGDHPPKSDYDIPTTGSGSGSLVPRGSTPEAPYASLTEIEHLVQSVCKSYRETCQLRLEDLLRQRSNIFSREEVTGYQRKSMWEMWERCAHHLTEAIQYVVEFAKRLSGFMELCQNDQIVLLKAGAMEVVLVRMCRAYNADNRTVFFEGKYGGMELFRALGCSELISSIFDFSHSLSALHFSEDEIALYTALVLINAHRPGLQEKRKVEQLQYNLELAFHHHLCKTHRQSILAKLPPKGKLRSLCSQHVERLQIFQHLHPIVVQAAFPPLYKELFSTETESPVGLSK
# methodDescription: RORγ radioligand competition binding assay (SPA)
# conditionDescription: competition with tritiated 2-(4-(ethylsulfonyl)phenyl)-N-(4-(2-(methoxymethyl)phenyl)thiophen-2-yl)acetamide (25 nM), hRORγ LBD
Would you mind telling me the reported pIC50 of each entry?
Give bare numbers, as −log10 of the molar value.

Provide pIC50 for all items below, preserving their order.
1. CS(=O)(=O)c1ccc2c(c1)CN(C(=O)CCN)C2C(=O)Nc1ccc(C(C#N)(C(F)(F)F)C(F)(F)F)cc1 (centres unmarked) [Example 11]
2. CC(=O)NCCC(c1ccc(NC(=O)C2c3ccc(S(C)(=O)=O)cc3CN2C(C)=O)cc1)(C(F)(F)F)C(F)(F)F (centres unmarked) [Example 45]
3. CC(=O)N1Cc2cc(S(C)(=O)=O)ccc2C1C(=O)Nc1ccc(C(CC#N)(C(F)(F)F)C(F)(F)F)cc1 (centres unmarked) [Example 36]
4. CCCNC(c1ccc(NC(=O)C2c3ccc(S(C)(=O)=O)cc3CN2C(C)=O)cc1)(C(F)(F)F)C(F)(F)F (centres unmarked) [Example 16]
5. CC(=O)N1Cc2cc(S(C)(=O)=O)ccc2C1C(=O)Nc1ccc(C(Cc2nc(C)no2)(C(F)(F)F)C(F)(F)F)cc1 (centres unmarked) [Example 34]
6. COC1(C(=O)N2Cc3cc(S(C)(=O)=O)ccc3C2C(=O)Nc2ccc(C(C#N)(C(F)(F)F)C(F)(F)F)cc2)CC1 (centres unmarked) [Example 3]

Reply:
[7.60, 6.10, 6.80, 8.20, 7.70, 7.70]
